assay: in vitro; settings: human, microsomes

{"Compound": "Oc1cccc2c1O[C@H]1CN(C[C@H]3C[C@@H]3c3ccccc3)[C@H]3CCC[C@@]21C3 [(+)-17]", "half-life": "20.1 min"}

---

molecular target: κ-opioid receptor (KOR) (Rattus norvegicus, UniProt P34975); construct: All assay tubes contained 100 μL homogenate suspension; assay: Opioid receptor binding, KOR ([3H]U69,593), rat brain homogenate; settings: [3H]U69,593, whole rat brains excluding cerebellum; read-out: KOR Binding (Ki ± SEM)
Sequence (P34975 whole entry): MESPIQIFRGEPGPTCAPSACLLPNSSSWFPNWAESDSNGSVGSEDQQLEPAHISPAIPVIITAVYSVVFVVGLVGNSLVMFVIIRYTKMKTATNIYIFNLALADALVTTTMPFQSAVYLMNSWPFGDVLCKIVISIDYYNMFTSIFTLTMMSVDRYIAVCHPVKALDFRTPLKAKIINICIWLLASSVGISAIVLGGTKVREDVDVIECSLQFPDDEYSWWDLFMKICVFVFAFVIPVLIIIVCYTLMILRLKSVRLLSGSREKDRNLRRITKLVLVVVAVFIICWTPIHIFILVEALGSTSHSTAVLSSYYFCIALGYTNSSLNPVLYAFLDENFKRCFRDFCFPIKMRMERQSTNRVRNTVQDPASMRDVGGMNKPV
pKi: −log10 of the molar value.

{"Compound": "Oc1cccc2c1O[C@H]1CN(C[C@@H]3C[C@@H]3c3ccccc3)[C@H]3CCC[C@@]21C3 [(-)-18]", "pKi": 6.96}
{"Compound": "Oc1cccc2c1O[C@H]1CN(CCc3ccccc3)[C@H]3CCC[C@@]21C3 [(-)-1]", "pKi": 7.89}
{"Compound": "Oc1cccc2c1O[C@H]1CN(C[C@H]3C[C@H]3c3ccccc3)[C@H]3CCC[C@@]21C3 [(+)-19]", "pKi": 7.17}
{"Compound": "Oc1cccc2c1O[C@H]1CN(C[C@H]3C[C@@H]3c3ccccc3)[C@H]3CCC[C@@]21C3 [(+)-17]", "pKi": 7.00}
